Numbers sourced from PubChem BioAssay.

Assay: small-molecule microarray binders of probe aLefty2, primary screen, biochemical, biotinylated probe, 635/667 nm fluorescence (AID 1094);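 further: score merges spot fluorescence near 667 nm with spot signal-to-noise ratio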
Conditions: higher = more signal
Please respond with reported composite z-score for every item in the list.
Please reply with the number alone, leaving off any unit.

Data point: CC(C)=CCCC(C)=CC(O)C1C=CC2C(=O)N(c3ccccc3)C(=O)C2N1Nc1ccccc1 (stereo not drawn) ; composite z-score = 0.201

Data point: `COc1ccc(C#Cc2ccc3c(c2)[C@]2(C(=O)N3)[C@H](C(=O)NC[C@H](O)c3ccccc3)[C@H]3C(=O)O[C@H](c4ccccc4)[C@H](c4ccccc4)N3[C@@H]2c2ccc(OCCO)cc2)cc1` ; composite z-score = -0.22

Data point: `CN(C)C(=O)[C@]1(CCC(=O)OC(C)(C)C)N=C(c2ccc(OCCCO)cc2)O[C@@H]1c1ccccc1N=[N+]=[N-]` ; composite z-score = 0.17

###

Assay: COS7 lysate on small-molecule microarray, probe aHis, 635 nm (AID 1123);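 further: z-score combines 667nm fluorescence intensity with signal-to-noise per printed compound spot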
Settings: COS7 cell lysate, fluorescence, higher = more signal
endpoint_name: composite z-score
Please reply with the number alone, leaving off any unit.

Data point: `CC(=CC1CCCCC1)[C@@H](NC(=O)c1ccc(C(F)(F)F)cc1)c1ccc(-c2ccccc2)cc1` ; composite z-score = -0.261

Data point: `CN(C)CCCNC(=O)[C@@]1(Cc2ccccc2I)c2ccccc2C(=O)N(Cc2ccccc2C(F)(F)F)[C@H]1c1ccc(CO)cc1` ; composite z-score = 2.4

Data point: `O=C1O[C@H](c2ccccc2)[C@H](c2ccccc2)N2[C@H]1[C@@H](C(=O)O)[C@]1(C(=O)Nc3ccc(C#CC4(O)CCCCCC4)cc31)[C@H]2c1ccc(OCCO)cc1` ; composite z-score = 2.58

Data point: CC(c1ccccc1)C(O)C1C=CC2C(=O)NC(=O)C2N1Nc1ccccn1 (stereo unspecified) ; composite z-score = 0.954

Data point: `CC(=O)Nc1cc(Br)ccc1C(=O)O` ; composite z-score = 0.385

Data point: [N-]=[N+]=NCc1ccccc1C[C@@]1(C(=O)NCC(O)CO)N=C(c2ccc(OCCCO)cc2)O[C@@H]1c1ccccc1CN=[N+]=[N-] (stereo partly specified) ; composite z-score = 3.29

Data point: CCOC(=O)C1=CCC(c2ccc(C#N)cc2)N(S(=O)(=O)c2ccc(C)cc2)C1 (stereo unspecified) ; composite z-score = 1.63

Data point: `CCOC(=O)C[C@H]1[C@H](OC(=O)c2ccccc2-c2ccccc2)[C@@H](NC(=O)Cc2ccc(OC)cc2)c2cc(OCCCO)ccc2N1C(=O)c1ccccc1` ; composite z-score = 0.157

Data point: `O=C(CCN1CCOCC1)c1cccc(O)c1` ; composite z-score = 0.973

Data point: `CCOC(=O)C1=CC[C@@H](c2ccccc2)N(S(=O)(=O)c2ccc(C)cc2)[C@H]1C(=O)OCC` ; composite z-score = 1.22

Data point: `C=CCNC(=O)[C@H]1[C@@H]2C(=O)O[C@@H](c3ccccc3)[C@@H](c3ccccc3)N2[C@@H](c2ccc(O)cc2)[C@]12C(=O)N(C(=O)OCCOC)c1ccc(C#CCCO)cc12` ; composite z-score = 2.1

Data point: `[N-]=[N+]=NCc1ccccc1[C@H]1OC(c2ccc(OCCCO)cc2)=N[C@@]1(CCS(=O)(=O)c1ccccc1)C(=O)N1CCOCC1` ; composite z-score = 3.05

Data point: CCCCCCCCCCC(O)C1C=CC2C(=O)N(Cc3ccccc3)C(=O)C2N1n1cnnc1 (stereo unspecified) ; composite z-score = 1.1

Data point: `CC(C)(C)OC(=O)CC[C@@]1(C(=O)O)N=C(c2ccc(OCCCO)cc2)O[C@@H]1c1ccccc1N=[N+]=[N-]` ; composite z-score = 1.27

Data point: COC(=O)C1=CC(CCCO)=CC(C2CC2)N(Cc2sc3ccccc3c2Cl)C=C1C(=O)OC (stereo unspecified) ; composite z-score = 1.55

Data point: `COCCOC(=O)N1C(=O)[C@@]2(c3cc(C#CCCO)ccc31)[C@H](c1ccc(O)cc1)N1[C@H](c3ccccc3)[C@H](c3ccccc3)OC(=O)[C@H]1[C@@H]2C(N)=O` ; composite z-score = 0.831

###

Please respond with reported composite z-score for every item in the list.
Test system: Human papillomavirus type 1a protein E7 (residues 44-93)
Experiment: HPV1a E7 fragment binders on microarrays, primary screen, biochemical, small-molecule microarray, residues 44-93, 635 nm fluorescence (AID 1108);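 further: E7 fragment applied at 1 µg/mL in TBST for 1 h at 4 C; score combines spot fluorescence with its signal to noise ratio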
Details: small-molecule microarray binding, fluorescence 635 nm; higher = more signal
Please reply with the number alone, leaving off any unit.

Item `CCOC(=O)C[C@H]1[C@H](OC(=O)c2ccccc2-c2ccccc2)[C@@H](NC(=O)Cc2ccc(OC)cc2)c2cc(OCCCO)ccc2N1C(=O)c1ccccc1` was tested on Human papillomavirus type 1a protein E7 (residues 44-93); the reported composite z-score is 0.0712

Item `[N-]=[N+]=NCc1ccccc1C[C@]1(C(=O)O)N=C(c2ccc(OCCCO)cc2)O[C@H]1c1ccccc1CN=[N+]=[N-]` was tested on Human papillomavirus type 1a protein E7 (residues 44-93); the reported composite z-score is 1.43

Item `COCCOC(=O)N1C(=O)[C@@]2(c3cc(C#CC4=CCCCC4)ccc31)[C@H](C(=O)N1CCc3cc(OC)c(OC)cc3C1)[C@H]1C(=O)O[C@H](c3ccccc3)[C@H](c3ccccc3)N1[C@@H]2c1ccccc1OCCO` was tested on Human papillomavirus type 1a protein E7 (residues 44-93); the reported composite z-score is 0.899

Item COc1cc(C(O)C2C=CC3C(=O)N(c4ccccc4)C(=O)C3N2Nc2ccc(C#N)cc2)cc(OC)c1OC (centres undefined) was tested on Human papillomavirus type 1a protein E7 (residues 44-93); the reported composite z-score is 0.626

###

Assay: PSAC antagonists in infected red cells, primary screen, cell-based, P. falciparum Indochina, OD700, 18 h (AID 1157)
Conditions: P. falciparum Indochina infected erythrocytes, osmotic lysis OD700, 18 h; higher = more signal, called active from +8 up or from −8 down
Please respond with reported z-score for every item in the list.
Please reply with the number alone, leaving off any unit.

Data point: `N[C@@H](Cc1ccccc1)Cn1cc(-c2ccccc2)nn1` ; z-score = 0.53

Data point: C=CCC(OC(C)=O)[C@@H]1[C@@H](N(Cc2ccc(-c3cccc(C(F)(F)F)c3)o2)C(=O)c2ccc(C)cc2)c2cc(OCCCO)ccc2N1C(=O)c1ccc(-c2ccccc2)cc1 (stereo not given in full) ; z-score = -0.0352

Data point: `CCCCCCc1nc(CCCc2cc3c(c(CCCCCC)n2)[Si](C(C)C)(C(C)C)OC3)cc2c1[Si](C(C)C)(C(C)C)OC2` ; z-score = -1.72

Data point: `CC(C)C[C@@H]1NC(=O)[C@@H]2C[C@H](C(=O)NCCCCCC[N+](C)(C)C)[C@H](c3ccc(O)cc3)N2C1=O` ; z-score = 0.227

Data point: Cc1cc(C)c(C(O)C2C=CC3C(=O)N(C)C(=O)C3N2Nc2ccccc2)c(C)c1 (stereo not given) ; z-score = 1.03

Data point: O=C1OCCC=C[C@H]2OC34C=CCN(Cc5ccccc5)C(=O)[C@H]3N(CCCCCCO)C(=O)[C@@H]4C12 (stereo not given in full) ; z-score = 0.43

Data point: `[N-]=[N+]=NCc1ccccc1[C@@H]1OC(c2ccc(OCCCO)cc2)=N[C@]1(Cc1ccccc1N=[N+]=[N-])C(=O)NCc1ccccc1` ; z-score = 1.33

Data point: `CN(C)C(=O)[C@@]1(CCC(=O)OC(C)(C)C)N=C(c2ccc(OCCCO)cc2)O[C@H]1c1ccccc1` ; z-score = -0.976

Data point: `C[N+](C)(C)CCCCCCNC(=O)[C@H]1C[C@H]2C(=O)N3CCC[C@H]3C(=O)N2[C@H]1c1ccc(O)cc1` ; z-score = -1.44

Data point: `COC(=O)[C@]1(Cc2ccccc2N=[N+]=[N-])N=C(c2ccc(OCCCO)cc2)O[C@@H]1c1ccccc1N=[N+]=[N-]` ; z-score = 6.35

Data point: `COCCOC(=O)N1C(=O)[C@@]2(c3cc(C#CCCO)ccc31)[C@H](c1ccccc1OCCO)N1[C@H](c3ccccc3)[C@H](c3ccccc3)OC(=O)[C@H]1[C@@H]2C(=O)N1CCN(c2ncccn2)CC1` ; z-score = 0.708

Data point: `CCCN1C(=O)[C@@]2(CCC(=O)OC(C)(C)C)N=C(c3ccc(OCCCO)cc3)O[C@H]2c2ccccc21` ; z-score = 9.08

Data point: `CCOC(=O)C[C@H]1[C@H](OC(=O)Cc2ccc3c(c2)OCO3)[C@@H](NC(=O)c2ccc(-c3ccccc3)cc2)c2cc(OCCCO)ccc2N1C(=O)c1ccccc1` ; z-score = 0.505

Data point: `C=C(CCCC)C(=O)CC[C@H](OC(=O)c1cccnc1)c1cccc(OCCO)c1` ; z-score = 1.19

Data point: C=CCC(OC(C)=O)[C@@H]1[C@@H](N(Cc2ccc(-c3ccccc3)cc2)C(=O)Cc2ccc(F)cc2)c2cc(OCCCO)ccc2N1C(=O)c1ccc2ccccc2n1 (stereo not given in full) ; z-score = 0.505
